- System: Mycobacterium tuberculosis
- procedure-text: Antimycobacterial activity against drug sensitive Mycobacterium tuberculosis Erdman by turbidometric method
- Assay type: functional
- test-context: Erdman = ATCC 35801
Reported log10(MIC80) values follow for various compounds
Please be aware that the numbers have been log10-transformed from MIC80 in µM.

Sample records with log10(MIC80):
{"compound": "CN(C)CCOc1ncc(Nc2cc(N3CCC(c4ccccc4Cl)C3)nc3cc(F)c(F)cc23)cc1F (stereo unspecified)", "log10(MIC80)": 0.49}
{"compound": "CC[C@@H](CO)NCCN[C@@H](CC)CO", "log10(MIC80)": 0.99}

Prompt line: Which log10(MIC80) value is on record for CN(C)CCOc1ncc(Nc2cc(-c3ccccc3)nc3cc(-c4ccc(F)cc4)nn23)cc1F ?
Response line: 0.80

Prompt line: Which log10(MIC80) value is on record for NNC(=O)c1ccncc1 ?
Response line: -0.70

Prompt line: Which log10(MIC80) value is on record for CO[C@H]1/C=C/O[C@@]2(C)Oc3c(C)c(O)c4c(O)c(c(/C=N/N5CCN(C)CC5)c(O)c4c3C2=O)NC(=O)/C(C)=C\C=C\[C@H](C)[C@H](O)[C@@H](C)[C@@H](O)[C@@H](C)[C@H](OC(C)=O)[C@@H]1C ?
Response line: -1.40

----------
Reported MIC values follow for various compounds
- Tested on: Mycobacterium tuberculosis
- procedure-text: Antimycobacterial activity against Mycobacterium tuberculosis under aerobic condition after 7 days by microdilution method
- Type: functional
- test-context: 168 h
Give a bare numeral; the unit µM is implied.

Sample records with MIC:
{"compound": "COc1nc2ccc(Br)cc2cc1[C@@H](c1ccccc1)[C@@](O)(CCN(C)C)c1cccc2ccccc12", "tested-system": "Mycobacterium tuberculosis", "unit-tag": "µM", "numeric-value": 0.2}
{"compound": "COc1cc2nc(NCCC3CCOCC3)nc(Nc3cnc(OCCN(C)C)c(F)c3)c2cc1OC", "tested-system": "Mycobacterium tuberculosis", "unit-tag": "µM", "numeric-value": 25}
{"compound": "COc1cc2nc(NCCC3CCOCC3)cc(Nc3cnc(OCCN(C)C)c(F)c3)c2cc1OC", "tested-system": "Mycobacterium tuberculosis", "unit-tag": "µM", "numeric-value": 200}
{"compound": "CC(Nc1nc(N2CCCC2)nc2ccccc12)c1ccccc1 (centres undefined)", "tested-system": "Mycobacterium tuberculosis", "unit-tag": "µM", "numeric-value": 50}
{"compound": "CN(C)CCOc1ncc(Nc2cc(C(F)(F)F)nc3cc(-c4ccc(F)cc4)nn23)cc1F", "tested-system": "Mycobacterium tuberculosis", "unit-tag": "µM", "numeric-value": 12.5}
{"compound": "COc1cc2nc(N3CCC(c4ccccc4Cl)C3)cc(Nc3cnc(OCCN(C)C)c(F)c3)c2cc1OC (centres undefined)", "tested-system": "Mycobacterium tuberculosis", "unit-tag": "µM", "numeric-value": 1.6}
{"compound": "COc1cc2nc(NCCc3ccccc3Cl)cc(Nc3cnc(OCCN(C)C)c(F)c3)c2cc1OC", "tested-system": "Mycobacterium tuberculosis", "unit-tag": "µM", "numeric-value": 3.1}

Continue with the compound presented below.
Prompt line: Which MIC value is on record for CCOc1ncc(Nc2nc(NCCC3CCOCC3)nc3cc(OC)c(OC)cc23)cc1F ?
Response line: 1.9
